tested on: Botrytis cinerea 10-1728; test: Broth microdilution MIC of individual antifungals; format: cell-based; conditions: Botrytis cinerea 10-1728; individual antifungal, 25% PDB, about 25° C., 72 hours; range over N independent triplicate studies
measurement kind: Independent MIC

Reference set (4 entries):
[
  {
    "compound": "O=[N+]([O-])c1c(Cl)c(Cl)c(Cl)c(Cl)c1Cl",
    "Independent MIC": "50 µg/mL"
  },
  {
    "compound": "CO/C=C(/C(=O)OC)c1ccccc1COc1cccc(C(F)(F)F)n1",
    "Independent MIC": "(100-200) μg/mL"
  },
  {
    "compound": "C[C@H]1O[C@H](O[C@H]2[C@H](O)[C@@H](O)[C@@H](O)[C@H](O)[C@@H]2O)[C@@H](N)C[C@@H]1NC(=N)C(=O)O",
    "Independent MIC": "200 µg/mL"
  },
  {
    "compound": "CC(Oc1ccc(Cl)cc1Cl)C(=O)NC(C)(C#N)C(C)C (stereo not shown)",
    "Independent MIC": "(100-200) μg/mL"
  }
]

Could you now consider this next compound?
Exam item: Quote Independent MIC reported for Cn1cc(C(=O)Nc2ccccc2-c2cc(F)c(F)c(F)c2)c(C(F)F)n1 please.
Marked response: 6.25 µg/mL

* * *

Item-by-item account of MIC
tested on: Aureobasidium pullulans; assay: Broth microdilution MIC of individual antifungals; assay type: cell-based; conditions: individual antifungal, 25% PDB, about 25° C., 72 hours, range over N independent triplicate studies, read-out: Independent MIC

Reference set (3 entries):
[
  {
    "molecule": "OB1OCc2cc(F)ccc21 [B90]",
    "result": "0.25 to 0.5 µg/mL"
  },
  {
    "molecule": "c1ccc2[nH]c(-c3cscn3)nc2c1 [Thiabendazole]",
    "result": "0.2 to 0.39 µg/mL"
  },
  {
    "molecule": "Nc1ccc2c(c1)COB2O [B2]",
    "result": "> 32 µg/mL"
  }
]

Could you now consider this next molecule?
Exam item: Quote MIC reported for CC1(C(=O)Nc2ccc(O)c(Cl)c2Cl)CCCCC1 [Fenhexamid, fenhexamid] please.
Marked response: 100 µg/mL

* * *

test system: Sclerotinia homoeocarpa; assay: Broth microdilution MIC of individual antifungals; type: cell-based; conditions: Clarireedia homoeocarpa; Sclerotinia homoeocarpa; individual antifungal, 25% PDB, about 25° C., 72 hours; range over N independent triplicate studies; read-out: Independent MIC
measurement kind: MIC

Exam item: Quote MIC reported for CC(C)NC(=O)N1CC(=O)N(c2cc(Cl)cc(Cl)c2)C1=O please.
Marked response: 4 to 10 µg/mL

Exam item: Quote MIC reported for CCCOC(=O)NCCCN(C)C please.
Marked response: 200 µg/mL

Exam item: Quote MIC reported for O=[N+]([O-])c1cc(C(F)(F)F)c(Cl)c([N+](=O)[O-])c1Nc1ncc(C(F)(F)F)cc1Cl please.
Marked response: 3.12 to 6.25 µg/mL

Exam item: Quote MIC reported for O=C1C2CC=CCC2C(=O)N1SC(Cl)(Cl)Cl (stereo not drawn) please.
Marked response: 2 to 4 µg/mL

Exam item: Quote MIC reported for Cc1ccc2c(c1)COB2O please.
Marked response: 1 µg/mL

Exam item: Quote MIC reported for CC#Cc1cc(C)nc(Nc2ccccc2)n1 please.
Marked response: 0.098 to 0.19 µg/mL

Exam item: Quote MIC reported for OB1OCc2cc(Cl)ccc21 please.
Marked response: 1 to 4 µg/mL

Exam item: Quote MIC reported for c1ccc2[nH]c(-c3cscn3)nc2c1 please.
Marked response: 20 to 25 µg/mL

Exam item: Quote MIC reported for COC(=O)N(OC)c1ccccc1COc1ccn(-c2ccc(Cl)cc2)n1 please.
Marked response: 0.5 µg/mL

Exam item: Quote MIC reported for C=CCOC1=NS(=O)(=O)c2ccccc21 please.
Marked response: 50 to 100 µg/mL

Exam item: Quote MIC reported for COCC(=O)N(c1c(C)cccc1C)C(C)C(=O)OC (stereo not drawn) [Metalaxyl, metalaxyl] please.
Marked response: 128 to 200 µg/mL

Exam item: Quote MIC reported for N#Cc1c(Cl)c(Cl)c(Cl)c(C#N)c1Cl please.
Marked response: 0.39 to 0.78 µg/mL

All values here come from patent US9737075B2.
